Reference for the values: patent US20170306005A1

As shown below, each of these binders has a reported koff value.
# TESTED SYSTEM: T1, human tenascin-C rCd4-His-FBG (rat; human, UniProt P05540 207-392, limits assumed)
# T1 construct: domain: domains 3 and 4; C-terminal FBG fusion; biotinylated in the ELISA and HTRF screens; also called Hu TNC; human TNC rCd4-His-FBG; not shown: 6His tag
# T1 sequence (chain (part 1 of 2)): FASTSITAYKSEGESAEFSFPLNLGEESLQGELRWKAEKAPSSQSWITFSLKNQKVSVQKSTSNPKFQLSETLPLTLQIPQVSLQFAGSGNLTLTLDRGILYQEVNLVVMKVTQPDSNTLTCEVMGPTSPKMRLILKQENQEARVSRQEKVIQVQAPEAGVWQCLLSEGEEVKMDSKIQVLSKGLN
# T1 sequence (chain (part 2 of 2)): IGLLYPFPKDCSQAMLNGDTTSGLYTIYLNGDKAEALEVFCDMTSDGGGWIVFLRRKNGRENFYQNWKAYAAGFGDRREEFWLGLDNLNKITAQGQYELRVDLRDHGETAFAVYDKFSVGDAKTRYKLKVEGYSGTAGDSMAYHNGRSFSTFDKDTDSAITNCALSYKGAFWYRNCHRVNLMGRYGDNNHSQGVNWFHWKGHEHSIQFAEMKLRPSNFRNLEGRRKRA
# PROTOCOL: SPR, captured Fab, 25 C
Give just the numeric value; s⁻¹ need not be written.

Examples with answers:
| BINDER | MEASURED PROPERTY | MEASURED NUMBER |
| --- | --- | --- |
| Fab D8 (Fab, V domains shown, monomeric Fab) VH: EVQLVQSGAEVKKPGASVKVSCKASGYTFTSYGISWVRQAPGQGLEWMGWISAYNGNTNYAQKLQGRVTMTTDTSTSTAYMELRSLRSDDTAVYYCARNQDSSSDYWGQGTLVTVSS VL: DIQMTQSPASLPTSVGDRVTITCRASQYIQGFLNWYQQKPGKAPKLLIYDASNLETGVPSRFSGSGSGTDFTLTISSLQPEDFATYYCQQSYSTLQTFGQGTKVDIKR | koff | 0.0131 |
| Fab F3 (Fab, V domains shown, monomeric Fab) VH: EVQLLESGGGLVQPGGSLRLSCAASGFTFSSYGMHWVRQAPGKGLEWVAVISYDGSNKYYADSVKGRFTISRGNSKNTLYLQMNSLKAEDTAVYYCAREGYDQLFSAESNAFDIWGQGTLVTVSS VL: NFMLAQPHSVSESPGKTVTISCTRSSGSIASYFVQWFQQRPGSAPTAVIYEDNQRPSGVPDRFSGSIDSSSNSASLTISGLKTEDEADYYCQSYDSSNWVFGGGTKVTVLG | koff | 0.00346 |
| Fab B12 (Fab, V domains shown, monomeric Fab) VH: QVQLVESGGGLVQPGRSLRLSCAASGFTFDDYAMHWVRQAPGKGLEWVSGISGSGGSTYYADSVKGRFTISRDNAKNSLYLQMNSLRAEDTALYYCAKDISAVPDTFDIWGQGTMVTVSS VL: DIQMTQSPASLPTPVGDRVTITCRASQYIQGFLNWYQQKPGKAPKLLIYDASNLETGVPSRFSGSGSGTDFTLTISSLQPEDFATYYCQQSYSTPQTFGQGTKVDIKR | koff | 0.0003 |

Attention now shifts to the item below.
The reported value for Fab 2A5 (Fab, V domains shown, monomeric Fab) VH: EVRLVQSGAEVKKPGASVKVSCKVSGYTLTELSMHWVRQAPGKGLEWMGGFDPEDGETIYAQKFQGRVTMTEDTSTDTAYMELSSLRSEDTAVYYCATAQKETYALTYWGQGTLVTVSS VL: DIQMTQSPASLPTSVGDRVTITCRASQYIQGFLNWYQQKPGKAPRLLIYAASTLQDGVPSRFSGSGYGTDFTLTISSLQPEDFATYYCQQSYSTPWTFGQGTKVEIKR in terms of koff is 0.00563
